measure: melting point

Before answering, review these 2 worked examples.
Give a short answer stating reported melting point for `COC(=O)c1cc2nnn(-c3ccccc3)c2nc1OCc1ncnn1C` .
188 to 190 °C

For the compound `Cn1ncnc1COc1nc2c(cc1C(C)(C)C)nnn2-c1ccccc1F` , give its reported melting point.
115 to 117 °C

Further cases:
For the compound `Cn1ncnc1COc1nc2c(cc1-c1cccc(F)c1)nnn2-c1c(F)cccc1F` , report melting point.
137 to 140 °C

Give the value of melting point reported for the following: `CCCn1ncnc1COc1nc2c(cc1C(C)(C)C)nnn2-c1ccccc1F`
127 to 129 °C

Indicate its recorded melting point; the compound in question is `Cn1ncnc1COc1nc2c(cc1C(C)(C)C)nnn2-c1ccccc1`
165 to 167 °C

Identify measured melting point associated with `Cn1ncnc1COc1nc2c(cc1-c1ccccc1)nnn2-c1ccccc1F`
144 to 146 °C

* * *

In this section, each of the molecules is paired with its reported melting point.

# return recorded melting point for input `Cn1cnc(COc2nc3c(nnn3-c3ccccc3)c3ccccc23)n1`
189 to 190 °C

Give the measured melting point for Cn1ncnc1COc1nc2c(cc1C1CCC1)nnn2-c1c(F)cccc1F (hydrate or solvate)
140 to 144 °C

Look up melting point of `Cn1cnc(COc2nc3c(cc2-c2ccsc2)nnn3-c2ccccc2F)n1` and report it.
174 to 176 °C

Please give the documented melting point of `Cn1ncnc1COc1nc2c(cc1-c1ccco1)nnn2-c1ccccc1F`
170 to 173 °C

Annotate the molecule `c1ccc(-n2nnc3c4ccccc4c(OCc4ccccn4)nc32)cc1` with its measured melting point.
147 to 150 °C

Now consider a different molecule.
Given the molecule `CCn1ncnc1COc1nc2c(nnn2-c2ccccc2)c2ccccc12` , write its reported melting point.
192 to 195 °C

* * *

Reported melting point values for the following compounds.

Answered examples (5):
Kindly indicate its recorded melting point. Item: `Cn1ncnc1COc1nc2c(cc1C1CCC1)nnn2-c1ccccc1F`
120 to 122 °C

Note melting point for the compound shown: `COc1cccc(F)c1-n1nnc2cc(C(C)(C)C)c(OCc3ncnn3C)nc21`
116 to 118 °C

Please report melting point for the following compound: `CCn1ncnc1COc1nc2c(cc1C(C)(C)C)nnn2-c1cc(F)ccc1F`
148 to 150 °C

Using the record for `Cn1ncnc1COc1nc2c(cc1-c1ccoc1)nnn2-c1c(F)cccc1F` , state its measured melting point.
166 to 169 °C

Give melting point for `Cn1ncnc1COc1nc2c(cc1-c1ccsc1)nnn2-c1ccccc1F`
133 to 135 °C

Next:
Read off the recorded melting point for `Cn1ncnc1COc1nc2c(nnn2-c2ccccc2)c2ccccc12`
188 to 190 °C

Find the measured melting point of `Cn1ncnc1COc1nc2c(cc1-c1ccoc1)nnn2-c1ccccc1F` and report it.
145 to 146 °C

Entry `Cn1ncnc1COc1nc2c(cc1CC(C)(C)C)nnn2-c1ccccc1F` needs its melting point filled in; supply it.
130 to 133 °C

Indicate its recorded melting point; the compound in question is `CCCn1ncnc1COc1nc2c(nnn2-c2ccccc2)c2ccccc12`
154 to 156 °C

Please indicate melting point recorded for `Cn1cnc(COc2nc3c(cc2-c2cccs2)nnn3-c2ccccc2F)n1`
179 to 181 °C

* * *

Listing of entries alongside the reported melting point.

Consider the worked cases shown below.
Output measured melting point for this item: `Cn1cnc(COc2nc3c(cc2C(C)(C)C)nnn3-c2ccccc2)n1`
179 to 180 °C

Output melting point of `Cn1ncnc1COc1nc2c(cc1-c1ccc(F)cc1)nnn2-c1ccccc1F`
142 to 145 °C

For `Cn1ncnc1COc1nc2c(cc1C(C)(C)C)nnn2-c1c(F)cccc1F` , write its melting point.
105 to 108 °C

---
Please report melting point for the following molecule: `Cn1cnc(COc2nc3c(cc2C(C)(C)C)nnn3-c2ccccc2F)n1`
127 to 129 °C
